The measurements presented in this section are drawn from ChEMBL document CHEMBL1137626.

Below, each entry is listed with its recorded pKi.
experiment: Inhibition of thermolysin by enzcheck protease assay
Quick note: pKi values are minus log10 of concentrations in mol/L.

CC(C)C[C@H](NP(=O)(O)O[C@@H]1O[C@@H](C)[C@H](O)[C@@H](O)[C@H]1O)C(=O)N[C@@H](Cc1c[nH]c2ccccc12)C(=O)O 5.16

The record that follows has no pKi shown yet.
[in] What value of pKi has been recorded for this entry: CCCCC[C@H](CC(=O)NO)C(=O)N[C@H](C(=O)N1CCC[C@H]1CO)C(C)C
[out] 5.31
